Molecular target: BACE1 (Homo sapiens, UniProt P56817)
Construct: purchased Sino Biological, Beijing, China
Sequence (P56817 46-501): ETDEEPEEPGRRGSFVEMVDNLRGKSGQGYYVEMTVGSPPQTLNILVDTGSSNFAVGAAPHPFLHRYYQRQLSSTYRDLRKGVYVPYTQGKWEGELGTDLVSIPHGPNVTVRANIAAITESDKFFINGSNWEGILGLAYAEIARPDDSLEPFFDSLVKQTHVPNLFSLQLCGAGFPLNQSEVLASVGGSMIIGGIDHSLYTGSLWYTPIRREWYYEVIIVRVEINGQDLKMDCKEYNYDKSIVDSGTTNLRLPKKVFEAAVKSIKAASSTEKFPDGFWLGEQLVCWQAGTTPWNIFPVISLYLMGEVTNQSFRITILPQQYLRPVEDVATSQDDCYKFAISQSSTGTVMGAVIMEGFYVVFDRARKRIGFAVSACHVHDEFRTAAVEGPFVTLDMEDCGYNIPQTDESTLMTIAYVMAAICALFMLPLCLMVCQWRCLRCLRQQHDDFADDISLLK
Assay: β-Secretase (BACE1) inhibition assay (FRET)
Type: biochemical
Conditions: at a concentration of 400 µM; mean ± SEM, n = 3
Measured Attribute: inhibition at 400 µM (%)

P = O=C1O[C@H]([C@@H](O)CO)C(O)=C1O [Ascorbic acid, reference compound]
Q = O=C1O[C@H]([C@@H](O)COCc2cn(CC3Cc4c([nH]c5ccccc45)CN3)nn2)C(O)=C1O (some centres unmarked)
*Q* Could you check which of P and Q has a smaller value for inhibition at 400 µM? Answer by quoting the chosen item's label.
*A* P
(P: 7.84%, Q: 23.5%)

a = O=C1O[C@H]([C@@H](O)COCc2cn(Cc3ccc(O)cc3)nn2)C(O)=C1O
b = O=C1O[C@H]([C@@H](O)CO)C(OCc2cn(CC3Cc4c([nH]c5ccccc45)CN3)nn2)=C1O (some centres unmarked)
*Q* Sorting by inhibition at 400 µM in descending order, would a or b appear first? Answer by quoting the chosen item's label.
*A* b
(b: 27.3%, a: 6.8%)

---

Target: amyloid-β (1-42) peptide (Homo sapiens, UniProt P05067)
Construct: 9 µL of 25 μM working solution of amyloid-β (1-42) peptide; purchased Anaspec, Fremont, CA, USA
Sequence (P05067 672-713 limits assumed): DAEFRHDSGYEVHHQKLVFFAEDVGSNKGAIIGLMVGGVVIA
Assay: Amyloid aggregation inhibition assay (ThT)
Assay type: biochemical
Conditions: at a concentration of 400 µM; ThT, 48 h; mean ± SEM, n = 3
Measured Attribute: inhibition at 400 µM (%)

>>> df
                                   compound    measured_attribute  assay_result
0  COc1cc(Cn2cc(COC[C@H](O)[C@H]3OC(=O)C(O)=C3O)nn2)ccc1O  inhibition at 400 µM            51
1  O=C1O[C@H]([C@@H](O)COCc2cn(Cc3ccc(O)cc3)nn2)C(O)=C1O  inhibition at 400 µM            53
2  O=C1O[C@H]([C@@H](O)CO)C(OCc2cn(CC3Cc4c([nH]c5ccccc45)CN3)nn2)=C1O (stereo partly shown)  inhibition at 400 µM          68.3
3  O=C1O[C@H]([C@@H](O)CO)C(O)=C1O [Ascorbic acid, reference compound]  inhibition at 400 µM          63.4

P = O=C1O[C@H]([C@@H](O)COCc2cn(CC3Cc4c([nH]c5ccccc45)CN3)nn2)C(O)=C1O (stereo partly shown)
Q = O=C1O[C@H]([C@@H](O)CO)C(OCc2cn(Cc3ccc(O)cc3)nn2)=C1O
R = COc1cc(Cn2cc(COC3=C(O)C(=O)O[C@@H]3[C@@H](O)CO)nn2)ccc1O
*Q* Endpoint returns the given compounds ordered by ascending inhibition at 400 µM. Sort and list the labels as requested.
*A* R, Q, P

---

Target: amyloid-β (1-42) peptide (Homo sapiens)
Construct: 9 µL of 25 μM working solution of amyloid-β (1-42) peptide
Test: Amyloid aggregation inhibition assay (ThT)
pIC50: −log10 of the molar value.
Measured Attribute: pIC50

                                   compound  measured_attribute  assay_result
0  COc1cc(Cn2cc(COC[C@H](O)[C@H]3OC(=O)C(O)=C3O)nn2)ccc1O               pIC50          3.50
1  O=C1O[C@H]([C@@H](O)COCc2cn(CC3Cc4c([nH]c5ccccc45)CN3)nn2)C(O)=C1O (some centres unmarked)               pIC50          4.03
2  O=C1O[C@H]([C@@H](O)CO)C(O)=C1O [Ascorbic acid, reference compound]               pIC50          3.84

1 = O=C1O[C@H]([C@@H](O)CO)C(OCc2cn(CC3Cc4c([nH]c5ccccc45)CN3)nn2)=C1O (some centres unmarked)
2 = O=C1O[C@H]([C@@H](O)COCc2cn(Cc3ccc(O)cc3)nn2)C(O)=C1O
*Q* Sorting by pIC50 in descending order, would 1 or 2 appear first? Answer by quoting the chosen item's label.
*A* 1
